# testName: Functional Dkk1-LRP5-TCF-Luciferase Assay in U2OS Cells (table columns: A=MAX FOLD Induction/DMSO CONTROL; B=fold induction @ 2.0 uM; C=fold induction @ 20.0 uM)
# Type: cell-based, Human
# particulars: Homo sapiens, U2OS; 2.0 uM compound
readout: fold induction at 2 µM
Give bare numbers.

{"molSmiles": "COc1ncccc1-c1nc2cc(-c3ccc4ccccc4c3)cnc2n1C1CCNCC1", "endpointResult": 2.06}
{"molSmiles": "C=Cc1cccc(-c2nc3c(-c4ccc5ccccc5c4)ccnc3n2C2CCNCC2)c1", "endpointResult": 1.44}
{"molSmiles": "Cc1nc2c(-c3ccc4ccccc4c3)ccnc2n1CC1CCNCC1", "endpointResult": 1.12}
{"molSmiles": "Cc1nc2c(-c3ccc4ccccc4c3)ccnc2n1[C@@H]1CCCNC1", "endpointResult": 2.74}

Continue with the next compound.
What value of fold induction at 2 µM has been reported for the following compound? COc1ccccc1-c1nc2cc(-c3ccc4ccccc4c3)cnc2n1C1CCNCC1 1.37

* * *

Please go through the items and note down their A = MAX FOLD Induction/DMSO CONTROL.
# System: canonical Wnt-β-catenin cellular messaging system (16xTCF-TK-FireFly-Luci reporter, Wnt3a and Dkk1 co-transfected U2OS cells)
# testName: Functional Dkk1-LRP5-TCF-Luciferase Assay in U2OS Cells (table columns: A=MAX FOLD Induction/DMSO CONTROL; B=fold induction @ 2.0 uM; C=fold induction @ 20.0 uM)
# Format: cell-based, Human
# particulars: maximum fold induction over DMSO control
# Description: Biological Evaluation—Functional Dkk1-LRP5-TCF-Luciferase Assay in U2OS Cells U2OS Human Bone derived cells (Osteosarcoma) are grown in McCoy's 5A Medium (Modified), with L-glutamine (GIBCO Cat No. 16600-082)+1% Pen-Strep+5% FBS) plated at 1×10^7 cells/T175 cm flask. […] After a minimum of 4 hr of transfection at 37° C., the plasmid-transfected cells are trypsinized, counted, and suspended in freezing medium (95% FBS+5% DMSO). […]
Numbers only.

Example entries begin here.
{"molSmiles": "Oc1ccc(-c2nc3cc(-c4ccc5ccccc5c4)cnc3n2C2CCNCC2)cc1", "A = MAX FOLD Induction/DMSO CONTROL": 1.710}
{"molSmiles": "COc1ccc(-c2nc3cc(-c4ccc5ccccc5c4)cnc3n2C2CCNCC2)cc1", "A = MAX FOLD Induction/DMSO CONTROL": 1.350}
{"molSmiles": "Cc1nc2c(-c3ccc4ccccc4c3)ccnc2n1C1CCNCC1", "A = MAX FOLD Induction/DMSO CONTROL": 3.215}
{"molSmiles": "CS(=O)(=O)N1CCC(n2cnc3c(-c4ccc5ccccc5c4)ccnc32)CC1", "A = MAX FOLD Induction/DMSO CONTROL": 1.230}
{"molSmiles": "C=Cc1cccc(-c2nc3cc(-c4ccc5ccccc5c4)cnc3n2C2CCNCC2)c1", "A = MAX FOLD Induction/DMSO CONTROL": 1.290}
{"molSmiles": "c1ccc2cc(-c3cnc4c(c3)nc(-c3ccc5c(c3)OCO5)n4C3CCNCC3)ccc2c1", "A = MAX FOLD Induction/DMSO CONTROL": 1.860}
{"molSmiles": "c1ccc2cc(-c3ccnc4c3ncn4CCCn3ccnc3)ccc2c1", "A = MAX FOLD Induction/DMSO CONTROL": 2.870}
{"molSmiles": "Oc1cccc(-c2nc3cc(-c4ccc5ccccc5c4)cnc3n2C2CCNCC2)c1O", "A = MAX FOLD Induction/DMSO CONTROL": 1.430}

Dear reader, for each entry below, please note its A = MAX FOLD Induction/DMSO CONTROL.
1. Cn1ccnc1-c1nc2cc(-c3ccc4ccccc4c3)cnc2n1C1CCNCC1
2. c1ccc2cc(-c3ccnc4c3ncn4[C@H]3CCNC3)ccc2c1

1. 2.720
2. 2.780

* * *

Give A = MAX FOLD Induction/DMSO CONTROL for every item shown.
# System: canonical Wnt-β-catenin cellular messaging system (16xTCF-TK-FireFly-Luci reporter, Wnt3a and Dkk1 co-transfected U2OS cells)
# testName: Functional Dkk1-LRP5-TCF-Luciferase Assay in U2OS Cells (table columns: A=MAX FOLD Induction/DMSO CONTROL; B=fold induction @ 2.0 uM; C=fold induction @ 20.0 uM)
# Format: cell-based, Human
# particulars: maximum fold induction over DMSO control
Give bare numbers.

{"molSmiles": "CC(=O)Nc1ccc(-c2nc3cc(-c4ccc5ccccc5c4)cnc3n2C2CCNCC2)cc1", "A = MAX FOLD Induction/DMSO CONTROL": 1.460}
{"molSmiles": "c1ccc2cc(-c3ccnc4c3ncn4[C@@H]3CCCNC3)ccc2c1", "A = MAX FOLD Induction/DMSO CONTROL": 3.820}
{"molSmiles": "COc1ccc(-c2nc3c(-c4ccc5ccccc5c4)ccnc3n2C2CCNCC2)cc1", "A = MAX FOLD Induction/DMSO CONTROL": 1.320}

Dear reader, for each entry below, please note its A = MAX FOLD Induction/DMSO CONTROL.
1. Oc1cccc(-c2nc3cc(-c4ccc5ccccc5c4)cnc3n2C2CCNCC2)c1
2. Fc1ccc(-c2nc3c(-c4ccc5ccccc5c4)ccnc3n2C2CCNCC2)cc1
3. c1cncc(-c2nc3cc(-c4ccc5ccccc5c4)cnc3n2C2CCNCC2)c1

1.860
1.370
1.100

Please report A = MAX FOLD Induction/DMSO CONTROL for every entry that follows.
1. Cn1cccc1-c1nc2cc(-c3ccc4ccccc4c3)cnc2n1C1CCNCC1
2. c1ccc2cc(-c3ccnc4c3nc(-c3ccncc3)n4C3CCNCC3)ccc2c1
3. c1ccc2cc(-c3ccnc4c3ncn4CC3CCNCC3)ccc2c1
4. c1c[nH]c(-c2nc3cc(-c4ccc5ccccc5c4)cnc3n2C2CCNCC2)c1
5. c1ccc2cc(-c3cnc4c(c3)nc(-c3ccc5c(c3)OCCO5)n4C3CCNCC3)ccc2c1

1. 2.470
2. 1.650
3. 1.930
4. 1.580
5. 1.460

# batch: return A = MAX FOLD Induction/DMSO CONTROL for each of the 5 compounds below
1. FC(F)(F)c1ccccc1-c1nc2cc(-c3ccc4ccccc4c3)cnc2n1C1CCNCC1
2. CN(C)C(=O)N1CCC(n2cnc3c(-c4ccc5ccccc5c4)ccnc32)CC1
3. Cc1nc[nH]c1-c1nc2cc(-c3ccc4ccccc4c3)cnc2n1C1CCNCC1
4. c1ccc2cc(-c3ccnc4c3ncn4C3CCNCC3)ccc2c1
5. c1ccc2cc(-c3ccnc4c3ncn4[C@H]3CCCNC3)ccc2c1

1. 1.360
2. 1.080
3. 1.870
4. 3.881
5. 2.303

* * *

# testName: Functional Dkk1-LRP5-TCF-Luciferase Assay in U2OS Cells (table columns: A=MAX FOLD Induction/DMSO CONTROL; B=fold induction @ 2.0 uM; C=fold induction @ 20.0 uM)
# Assay type: cell-based, Human
# particulars: Homo sapiens, U2OS; 20.0 uM compound
Record form. Attribute: fold induction at 20 µM. Fill in for each entry.
One number for each entry.

Study these solved cases before continuing.
{"molSmiles": "O=C(NC1CCCCC1)N1CCC(n2cnc3c(-c4ccc5ccccc5c4)ccnc32)CC1", "fold induction at 20 µM": 0.03}
{"molSmiles": "c1ccc2cc(-c3ccnc4c3nc(-c3ccncc3)n4C3CCNCC3)ccc2c1", "fold induction at 20 µM": 2.27}

Record request: fold induction at 20 µM value, item c1ccc2cc(-c3ccnc4c3ncn4C3CCNCC3)ccc2c1 0.063

* * *

# testName: Functional Dkk1-LRP5-TCF-Luciferase Assay in U2OS Cells (table columns: A=MAX FOLD Induction/DMSO CONTROL; B=fold induction @ 2.0 uM; C=fold induction @ 20.0 uM)
# Format: cell-based, Human
# particulars: Homo sapiens, U2OS; 2.0 uM compound
readout: fold induction at 2 µM
Answers are plain numbers.

Answered examples (3):
{"molSmiles": "Cc1nc2c(-c3ccc4ccccc4c3)ccnc2n1[C@@H]1CCNC1", "endpointResult": 1.44}
{"molSmiles": "Fc1cccc(-c2nc3c(-c4ccc5ccccc5c4)ccnc3n2C2CCNCC2)c1", "endpointResult": 1.55}
{"molSmiles": "COc1cccc(-c2nc3cc(-c4ccc5ccccc5c4)cnc3n2C2CCNCC2)c1", "endpointResult": 0.97}

Attention now shifts to the item below.
For the compound shown here, Brc1cccc(-c2nc3c(-c4ccc5ccccc5c4)ccnc3n2C2CCNCC2)c1 , give the reported fold induction at 2 µM. 1.52

* * *

Kindly state fold induction at 2 µM for each of the entries shown.
# testName: Functional Dkk1-LRP5-TCF-Luciferase Assay in U2OS Cells (table columns: A=MAX FOLD Induction/DMSO CONTROL; B=fold induction @ 2.0 uM; C=fold induction @ 20.0 uM)
# Assay type: cell-based, Human
# particulars: Homo sapiens, U2OS; 2.0 uM compound
Give bare numbers.

Please review the entries below; each comes with its answer.
{"molSmiles": "FC(F)(F)c1ccccc1-c1nc2c(-c3ccc4ccccc4c3)ccnc2n1C1CCNCC1", "fold induction at 2 µM": 1.72}
{"molSmiles": "CS(=O)(=O)N1CCC(n2cnc3c(-c4ccc5ccccc5c4)ccnc32)CC1", "fold induction at 2 µM": 1.66}
{"molSmiles": "Cn1cc(-c2nc3cc(-c4ccc5ccccc5c4)cnc3n2C2CCNCC2)c2ccccc21", "fold induction at 2 µM": 1.04}
{"molSmiles": "Cc1ccc(CCn2cnc3c(-c4ccc5ccccc5c4)ccnc32)cc1", "fold induction at 2 µM": 0.76}
{"molSmiles": "CCNC(=O)N1CCC(n2cnc3c(-c4ccc5ccccc5c4)ccnc32)CC1", "fold induction at 2 µM": 1.52}
{"molSmiles": "c1ccc(-c2nc3c(-c4ccc5ccccc5c4)ccnc3n2C2CCNCC2)nc1", "fold induction at 2 µM": 1.12}
{"molSmiles": "c1ccc2cc(-c3ccnc4c3nc(-c3cc5ccccc5o3)n4C3CCNCC3)ccc2c1", "fold induction at 2 µM": 1.53}
{"molSmiles": "FC(F)(F)c1cccc(-c2nc3c(-c4ccc5ccccc5c4)ccnc3n2C2CCNCC2)c1", "fold induction at 2 µM": 1.54}

Below are some compounds; for each one, tell me its fold induction at 2 µM.
1. Fc1ccc(-c2nc3cc(-c4ccc5ccccc5c4)cnc3n2C2CCNCC2)c(F)c1
2. Fc1cccc(F)c1-c1nc2c(-c3ccc4ccccc4c3)ccnc2n1C1CCNCC1

1.22
1.11

Batch request: fold induction at 2 µM for each of the following compounds.
1. COc1ccc(-c2nc3c(-c4ccc5ccccc5c4)ccnc3n2C2CCNCC2)cc1
2. c1ccc2cc(-c3cnc4c(c3)ncn4C3CCNCC3)ccc2c1

[1.98, 1.53]
